targetOrSystem: T1, recombinant human soluble gpNMB (recombinant human gpNMB-FLAG-His) (human, UniProt Q14956 23-498)
T1 sequence: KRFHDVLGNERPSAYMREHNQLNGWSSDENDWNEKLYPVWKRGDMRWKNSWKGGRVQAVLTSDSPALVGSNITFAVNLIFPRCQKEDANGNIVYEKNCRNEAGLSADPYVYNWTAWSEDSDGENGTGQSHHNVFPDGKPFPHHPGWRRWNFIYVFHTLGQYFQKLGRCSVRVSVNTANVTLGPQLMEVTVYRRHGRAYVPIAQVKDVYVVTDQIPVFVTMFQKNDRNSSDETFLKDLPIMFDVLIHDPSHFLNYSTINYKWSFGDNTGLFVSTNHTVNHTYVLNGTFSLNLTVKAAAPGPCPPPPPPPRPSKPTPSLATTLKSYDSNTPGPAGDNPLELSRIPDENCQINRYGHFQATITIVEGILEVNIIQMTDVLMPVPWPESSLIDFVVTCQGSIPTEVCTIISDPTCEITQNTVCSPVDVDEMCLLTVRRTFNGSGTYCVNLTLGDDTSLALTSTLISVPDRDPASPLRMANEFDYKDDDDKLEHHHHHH
assayDetails: antigen ELISA, vs hGPN18-2_H2L3
Parameter threshold = 0.9. Response is yes (1) when Relative binding activity meets or exceeds it, else no (0).

Use these answered entries as a reference point.
INSERT INTO assay_data (binder, assignedlabel) VALUES
  ('hGPN18-2_H2L3 VH S67A (antibody, V domains shown) VH: QVQLVQSGPGLVQPTQTLTLTCSFSGFSLSTSVMGVGWIRQPSGKGLEWLADIWWDDDKDYNPSLKARLTISKDTSKNQVVLTMTNMDTVDTATYYCARTYYSNYEYYGMDYWGQGTLVTVSS VL: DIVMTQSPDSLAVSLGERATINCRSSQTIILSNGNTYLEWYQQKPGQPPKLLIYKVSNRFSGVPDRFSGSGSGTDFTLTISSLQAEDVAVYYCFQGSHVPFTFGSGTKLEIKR', 'yes (1)'),
  ('hGPN18-2_H2L3 VH Y105A (antibody, V domains shown) VH: QVQLVQSGPGLVQPTQTLTLTCSFSGFSLSTSVMGVGWIRQPSGKGLEWLADIWWDDDKDYNPSLKSRLTISKDTSKNQVVLTMTNMDTVDTATYYCARTYYSNAEYYGMDYWGQGTLVTVSS VL: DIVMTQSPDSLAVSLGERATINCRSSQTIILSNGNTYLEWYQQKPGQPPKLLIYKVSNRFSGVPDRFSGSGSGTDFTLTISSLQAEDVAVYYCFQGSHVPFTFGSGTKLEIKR', 'no (0)'),
  ('hGPN18-2_H2L3 VH M110A (antibody, V domains shown) VH: QVQLVQSGPGLVQPTQTLTLTCSFSGFSLSTSVMGVGWIRQPSGKGLEWLADIWWDDDKDYNPSLKSRLTISKDTSKNQVVLTMTNMDTVDTATYYCARTYYSNYEYYGADYWGQGTLVTVSS VL: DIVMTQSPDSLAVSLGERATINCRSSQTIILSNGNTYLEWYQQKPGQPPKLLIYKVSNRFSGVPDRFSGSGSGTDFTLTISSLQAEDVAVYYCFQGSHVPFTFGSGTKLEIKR', 'no (0)');

## Task In plain terms: is recorded Relative binding activity at least 0.9 for hGPN18-2_H2L3 VH P63A (antibody, V domains shown) VH: QVQLVQSGPGLVQPTQTLTLTCSFSGFSLSTSVMGVGWIRQPSGKGLEWLADIWWDDDKDYNASLKSRLTISKDTSKNQVVLTMTNMDTVDTATYYCARTYYSNYEYYGMDYWGQGTLVTVSS VL: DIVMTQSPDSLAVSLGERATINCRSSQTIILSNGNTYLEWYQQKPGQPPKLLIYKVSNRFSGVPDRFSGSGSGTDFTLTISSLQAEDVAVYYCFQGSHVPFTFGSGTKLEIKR ?
## Result no (0)

## Task In plain terms: is recorded Relative binding activity at least 0.9 for hGPN18-2_H2L3 VH L65A (antibody, V domains shown) VH: QVQLVQSGPGLVQPTQTLTLTCSFSGFSLSTSVMGVGWIRQPSGKGLEWLADIWWDDDKDYNPSAKSRLTISKDTSKNQVVLTMTNMDTVDTATYYCARTYYSNYEYYGMDYWGQGTLVTVSS VL: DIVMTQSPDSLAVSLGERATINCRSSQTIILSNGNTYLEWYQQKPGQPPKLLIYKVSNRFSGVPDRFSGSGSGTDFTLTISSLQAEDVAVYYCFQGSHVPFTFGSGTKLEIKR ?
## Result yes (1)

## Task In plain terms: is recorded Relative binding activity at least 0.9 for hGPN18-2_H2L3 VH S64A (antibody, V domains shown) VH: QVQLVQSGPGLVQPTQTLTLTCSFSGFSLSTSVMGVGWIRQPSGKGLEWLADIWWDDDKDYNPALKSRLTISKDTSKNQVVLTMTNMDTVDTATYYCARTYYSNYEYYGMDYWGQGTLVTVSS VL: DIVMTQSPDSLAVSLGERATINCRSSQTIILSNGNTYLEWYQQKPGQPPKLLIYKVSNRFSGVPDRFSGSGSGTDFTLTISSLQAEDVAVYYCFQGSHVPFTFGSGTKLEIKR ?
## Result yes (1)

## Task In plain terms: is recorded Relative binding activity at least 0.9 for hGPN18-2_H2L3 VH T100A (antibody, V domains shown) VH: QVQLVQSGPGLVQPTQTLTLTCSFSGFSLSTSVMGVGWIRQPSGKGLEWLADIWWDDDKDYNPSLKSRLTISKDTSKNQVVLTMTNMDTVDTATYYCARAYYSNYEYYGMDYWGQGTLVTVSS VL: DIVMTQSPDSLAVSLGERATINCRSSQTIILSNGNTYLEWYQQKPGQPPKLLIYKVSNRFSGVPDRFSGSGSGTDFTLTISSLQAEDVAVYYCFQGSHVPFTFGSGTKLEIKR ?
## Result no (0)

## Task In plain terms: is recorded Relative binding activity at least 0.9 for hGPN18-2_H2L3 (antibody, V domains shown, humanized; also called humanized anti-gpNMB antibody H2L3) VH: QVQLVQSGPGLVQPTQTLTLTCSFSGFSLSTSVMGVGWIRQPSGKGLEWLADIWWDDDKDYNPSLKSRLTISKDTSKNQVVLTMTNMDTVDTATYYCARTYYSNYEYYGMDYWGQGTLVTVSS VL: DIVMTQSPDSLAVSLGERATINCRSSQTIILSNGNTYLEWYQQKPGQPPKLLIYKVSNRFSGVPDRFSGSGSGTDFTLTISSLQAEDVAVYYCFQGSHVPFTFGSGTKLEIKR ?
## Result yes (1)

## Task In plain terms: is recorded Relative binding activity at least 0.9 for hGPN18-2_H2L3 VH N104A (antibody, V domains shown) VH: QVQLVQSGPGLVQPTQTLTLTCSFSGFSLSTSVMGVGWIRQPSGKGLEWLADIWWDDDKDYNPSLKSRLTISKDTSKNQVVLTMTNMDTVDTATYYCARTYYSAYEYYGMDYWGQGTLVTVSS VL: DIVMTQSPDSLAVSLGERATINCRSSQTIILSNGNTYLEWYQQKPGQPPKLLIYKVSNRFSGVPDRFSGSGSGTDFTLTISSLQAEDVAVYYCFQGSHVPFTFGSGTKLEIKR ?
## Result no (0)

## Task In plain terms: is recorded Relative binding activity at least 0.9 for hGPN18-2_H2L3 VH S103A (antibody, V domains shown) VH: QVQLVQSGPGLVQPTQTLTLTCSFSGFSLSTSVMGVGWIRQPSGKGLEWLADIWWDDDKDYNPSLKSRLTISKDTSKNQVVLTMTNMDTVDTATYYCARTYYANYEYYGMDYWGQGTLVTVSS VL: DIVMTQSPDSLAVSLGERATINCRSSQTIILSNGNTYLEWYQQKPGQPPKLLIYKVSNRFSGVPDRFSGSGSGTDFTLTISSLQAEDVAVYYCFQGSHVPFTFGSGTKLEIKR ?
## Result yes (1)
